Listed molecules paired with reported relative viability
# Test system: MMACSF
# assay_explanation: relative viability (cell count relative to DMSO-treated control) (fraction of DMSO control); higher = more viable cells / less drug effect
# condition_parameters: 72 h; 0.0316 µM
assay_metric: relative viability

compound_smiles	val
CN(C)CCOc1ccc(-c2nc(-c3ccncc3)c(-c3ccc4c(c3)CC/C4=N\O)[nH]2)cc1	0.779
Cn1cnc2c(F)c(Nc3ccc(Br)cc3Cl)c(C(=O)NOCCO)cc21	0.563
CCCS(=O)(=O)Nc1ccc(F)c(C(=O)c2c[nH]c3ncc(Cl)cc23)c1F	0.86
CCCS(=O)(=O)Nc1ccc(F)c(C(=O)c2c[nH]c3ncc(-c4ccc(Cl)cc4)cc23)c1F	0.939
Cc1ccc(NC(=O)c2cccc(C(C)(C)C#N)c2)cc1Nc1ccc2ncn(C)c(=O)c2c1	0.641

====

# Test system: WM115
# assay_explanation: apoptotic fraction of cells (caspase-3 NucView488 positive); higher = more apoptosis
# condition_parameters: 24 h; 3.16 µM
# apoptotic fraction of cells per entry

compound	apoptotic fraction of cells
CCCS(=O)(=O)Nc1ccc(F)c(C(=O)c2c[nH]c3ncc(-c4ccc(Cl)cc4)cc23)c1F [Vemurafenib]	0.0792
Cn1cnc2c(F)c(Nc3ccc(Br)cc3Cl)c(C(=O)NOCCO)cc21 [Selumetinib]	0.143
CN(C)CCOc1ccc(-c2nc(-c3ccncc3)c(-c3ccc4c(c3)CC/C4=N\O)[nH]2)cc1	0.0958
Cc1ccc(NC(=O)c2cccc(C(C)(C)C#N)c2)cc1Nc1ccc2ncn(C)c(=O)c2c1 [AZ628]	0.202
CCCS(=O)(=O)Nc1ccc(F)c(C(=O)c2c[nH]c3ncc(Cl)cc23)c1F [PLX4720]	0.0673

====

Below is a list of entries, each paired with its recorded relative viability value.
# Tested on: MMACSF
# assay_explanation: relative viability (cell count relative to DMSO-treated control) (fraction of DMSO control); higher = more viable cells / less drug effect
# condition_parameters: 48 h; 3.16 µM
assay_metric: relative viability

compound_smiles	val
Cn1cnc2c(F)c(Nc3ccc(Br)cc3Cl)c(C(=O)NOCCO)cc21	0.533
CCCS(=O)(=O)Nc1ccc(F)c(C(=O)c2c[nH]c3ncc(-c4ccc(Cl)cc4)cc23)c1F	0.604
CCCS(=O)(=O)Nc1ccc(F)c(C(=O)c2c[nH]c3ncc(Cl)cc23)c1F	0.679
CN(C)CCOc1ccc(-c2nc(-c3ccncc3)c(-c3ccc4c(c3)CC/C4=N\O)[nH]2)cc1	0.684
Cc1ccc(NC(=O)c2cccc(C(C)(C)C#N)c2)cc1Nc1ccc2ncn(C)c(=O)c2c1	0.517

====

# Tested on: RVH421
# assay_explanation: relative viability (cell count relative to DMSO-treated control) (fraction of DMSO control); higher = more viable cells / less drug effect
# condition_parameters: 24 h; 0.00316 µM

compound	relative viability
Cc1ccc(NC(=O)c2cccc(C(C)(C)C#N)c2)cc1Nc1ccc2ncn(C)c(=O)c2c1 [AZ628]	0.929
Cn1cnc2c(F)c(Nc3ccc(Br)cc3Cl)c(C(=O)NOCCO)cc21 [Selumetinib]	0.975
CCCS(=O)(=O)Nc1ccc(F)c(C(=O)c2c[nH]c3ncc(Cl)cc23)c1F [PLX4720]	0.932
CCCS(=O)(=O)Nc1ccc(F)c(C(=O)c2c[nH]c3ncc(-c4ccc(Cl)cc4)cc23)c1F [Vemurafenib]	0.85
CN(C)CCOc1ccc(-c2nc(-c3ccncc3)c(-c3ccc4c(c3)CC/C4=N\O)[nH]2)cc1	0.994
